B1: Zinc finger MYM-type protein 3, residues 405 to 444; numbered along this chain, Q14202 (parent)
chain: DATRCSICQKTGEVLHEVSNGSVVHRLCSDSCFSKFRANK

variants of: B1; test: abundance fitness (aPCA) (normalised: wild type 0, dead -1); higher = more abundant; growth selection in yeast, the domain comes from the species named; settings: Homo sapiens
Class key for abundance fitness values: low value = under -0.3, medium value = from -0.3 up to -0.07, high value = -0.07 and over

Q: Band for F36D ?
Ans: medium value

Q: Hey, which category is G12T in, do you know?
Ans: medium value

Q: Where would V14P land among the classes by reported abundance fitness?
Ans: high value

Q: Class? Entry: A38P
Ans: low value

Q: Classify this variant: C5F
Ans: low value

Q: Which class is correct for the following variant? V18E
Ans: medium value

Q: Sort T3A into one of the categories.
Ans: low value

Q: State the band of K35A
Ans: high value

Q: Which band does G12H fall in?
Ans: medium value

Q: Which bin, given its abundance fitness, does E17W occupy?
Ans: low value

Q: Form: Item = C28V ; Class = ?
Ans: low value

Q: State the class of the variant shown: K40T
Ans: high value

Q: Field: class (abundance fitness) — entry: L15F
Ans: medium value

Q: Input S19E ; output its category
Ans: high value

Q: # bin label for E17D
Ans: medium value

Q: State the band of E13R
Ans: medium value

Q: Category lookup for the variant G12W
Ans: low value

Q: Which category does the recorded abundance fitness put R26A in?
Ans: high value

Q: Hi there! Could you help me figure out the category for L27H please?
Ans: low value

Q: Which bin, given its abundance fitness, does C8W occupy?
Ans: low value

Q: GET /class?item= T3R
Ans: high value

Q: GET /class?item= D30Y
Ans: low value

Q: Class label required: V14Y
Ans: low value

Q: Any idea which band D1Q is in?
Ans: medium value

Q: Band assignment needed for S6R please.
Ans: medium value

Q: Exercise: read the entry F33C and state which class it falls under.
Ans: medium value

Q: Which band does S6Q fall in?
Ans: medium value

Q: Which bin, given its abundance fitness, does S6A occupy?
Ans: high value

Q: Lab note: sort F36W into the matching abundance fitness band.
Ans: high value

Q: In plain terms, what class is S22W ?
Ans: low value

Q: Band for G21Q ?
Ans: high value

Q: Hi, small favor: classify I7K by its abundance fitness when you get a moment.
Ans: low value

Q: Pick a category. Item: V24M
Ans: high value

Q: Lab note: sort V23Q into the matching abundance fitness band.
Ans: high value

Q: Using the reported abundance fitness, which band applies to R4W ?
Ans: low value

Q: For the record K40C , report the class its abundance fitness corresponds to.
Ans: high value

Q: Input A2H ; output its category
Ans: high value

Q: Category of D1R , please.
Ans: medium value

Q: # bin label for A2T
Ans: high value

Q: Assign a category based on measured abundance fitness for D1V and give only the class name.
Ans: high value

Q: Just checking, what class would you give K40L here?
Ans: medium value

Q: State the band of A2W
Ans: medium value

Q: In plain terms, what class is Q9C ?
Ans: medium value
